Source listed as PubChem BioAssay (NCI).

Field: TGI. Provide a value for each of the molecules that follow.
system: UO-31 renal; assay: NCI tumour cell line growth inhibition, 48 h

1) Cc1ccc(C2C(Cl)C(=O)N2NC(=O)c2ccc(N)cc2)cc1 (centres undefined)    86.5 µM
2) CCOC(=O)C1(C(=O)OCC)C=C(c2ccccc2)N(C2OC(COC(C)=O)C(OC(C)=O)C(OC(C)=O)C2OC(C)=O)C1=S (centres undefined)    > 100 µM
3) C=Cc1c(C)c2cc3[nH]c(cc4nc(cc5nc(cc1[nH]2)C(C)=C5CCC(=O)N(CC)CC)C(CCC(=O)N(CC)CC)=C4C)c(C)c3C=C    > 100 µM

For this molecule ( `CC1=C(C#N)C(/C=C(\Cl)c2ccc(F)cc2)C(C#N)=C(C)N1` ), measured TGI is > 100 µM

====

tested on: OVCAR-8 ovarian; test: NCI tumour cell line growth inhibition, 48 h
Exercise: state measured TGI for each of the compounds provided.
Numbers only, in µM.

1. O=C1C=C(Nc2ccc(S(=O)(=O)Nc3ncccn3)cc2)c2ccccc2C1=O    42.4
2. O=C1C(Cl)=C(NCCF)C(=O)c2ncccc21    4.55
3. CC1=C(C(=O)Nc2ccccc2)C(c2cc(Cl)cc(Cl)c2)C(C(=O)Nc2ccccc2)=C(C)N1    43.5

# input for lookup
TGI reading for `CCCCCCCCCCOC(=O)c1cc[n+](C)cc1` : 31.4

====

tested on: U251 CNS; experiment: NCI tumour cell line growth inhibition, 48 h
Measurement label: TGI

Example entries begin here.
1. CCc1nn2ncccc2c1-c1ccnc(NC2CC2)n1    > 25 µM
2. CCOc1ccc(N=Cc2ccnc3ccccc23)cc1    > 68.1 µM
3. COc1ccc(CCN2C(=O)CC34C=CC(CC3C2=O)O4)cc1OC (centres undefined)    > 100 µM

Provide TGI for all items below, preserving their order.
1. O=C1NC(=Nc2ccccc2)C(=Nc2ccccc2)N1c1ccccc1
2. Cc1noc(C)c1-c1cnc2c(-c3ccc(C(=O)O)cc3)cn([C@@H](C)c3ccccn3)c2c1
3. CN(C)CCCCCNc1c2ccccc2nc2cccc([N+](=O)[O-])c12
4. Nc1ccc(-c2ccc3ncc4ccc(=O)n(-c5cccc(C(F)(F)F)c5)c4c3c2)cn1
5. CC(=O)OC1C(O[C@H]2CC[C@]34O[C@]35CC[C@]3(C)C(C6(C)CC[C@@H](C(C)(C)O)O6)[C@@H](O)CC3(C)[C@@H]5CC(OC3OC(CO)C(O)C(O)C3O)C4C2(C)C)OCC(O)C1O (some centres undefined)
6. Cc1nc(Sc2nc3ccc([N+](=O)[O-])cc3s2)sc1C

Reply text:
1: 28.9 µM; 2: > 100 µM; 3: 0.0251 µM; 4: 0.948 µM; 5: > 100 µM; 6: 7.9 µM

# return TGI for each item in the list
1. O=C1Nc2ccccc2/C1=C/c1cn(CC(O)Cn2cc(/C=C3\C(=O)Nc4ccccc43)c3ccccc32)c2ccccc12 (centres undefined)
2. C#C[C@]1(O)CC[C@H]2[C@@H]3CCC4=C/C(=N/OC(=O)c5cccc6c(=O)c7ccccc7[nH]c56)CCC4[C@H]3CC[C@@]21CC (some centres undefined)

Reply text:
1. 2.92 µM
2. > 100 µM

Items follow; give TGI for each.
1. COc1cc(Nc2ncnc(Nc3ccc4c(n3)NC(=O)C(C)(C)O4)n2)cc(OC)c1OC
2. Nc1ccccc1C(=O)NC(=O)Nc1ccc(Oc2ncc(Br)cn2)c(Cl)c1
3. O/N=C\C(=Nc1ccc(Cc2ccc(N=C(/C=N\O)NO)cc2)cc1)NO
4. O=C(Nc1ccc2cc3ccccc3cc2c1)c1cc2c(cc1Cl)Sc1nccn1S2(=O)=O
5. CCOC(=O)/C=C(/C(=O)OCC)n1ccc(=O)n(Cc2cnnn2CCCCOC(C)=O)c1=O
6. COC(=O)CCC(=O)N1CC1C (centres undefined)
7. O=C(O)c1ccc(Nc2nc3nn(Cc4ccccc4)cc3c(=O)s2)cc1

Reply text:
1. > 100 µM
2. 12.4 µM
3. > 100 µM
4. > 100 µM
5. > 100 µM
6. > 100 µM
7. > 100 µM

TGI reading for CCCCN1C(=O)/C(=c2\sc3n(c2=O)C2C(NN=3)N(CC)C(=O)N2CC)c2ccccc21 (centres undefined) : 3.39 µM

====

For each of the molecules below, state its TGI.
system: PC-3 prostate; experiment: NCI tumour cell line growth inhibition, 48 h

Worked examples follow.
1) O=C(/C=C\n1cnc(-c2cc(C(F)(F)F)cc(C(F)(F)F)c2)n1)N1CC(F)(F)C1    4.54 µM
2) C=C(CN1c2ccccc2Sc2ccccc21)c1ccc(C(=O)Nc2ccccc2N)cc1    > 100 µM

Below are some molecules; for each one, tell me its TGI.
1. C[n+]1ccccc1/C1=c2\cc/c([nH]2)=C(\c2cccc[n+]2C)C2=N/C(=C(/c3cccc[n+]3C)C3C=CC(N3)/C(c3cccc[n+]3C)=C3/C=CC1=N3)C=C2
2. C=CC[C@]1(C2=NC(C)(C)CO2)c2ccccc2-c2ccccc2[C@H]1C(C)=O
3. C[C@H](NC(=O)c1c(C(F)F)nn(C)c1Oc1cccc(C(F)(F)F)c1)c1ccc(C(=O)O)cc1
4. CCOc1ccc(C(C)=O)cc1NC(=O)c1cccc(-c2nnn(CC)n2)c1
5. C=CCN(CCN(CC=C)S(=O)(=O)c1ccc(C)cc1)S(=O)(=O)c1ccc(C)cc1
6. COc1cc(CN(c2ccc(C)cc2)C2OC(=O)c3ccccc32)cc(OC)c1OC (centres undefined)

Reply text:
1: > 100 µM; 2: 27.7 µM; 3: > 100 µM; 4: > 100 µM; 5: > 100 µM; 6: > 100 µM

Lab note: measured TGI of `CCc1nn2ncccc2c1-c1ccnc(NC2CC2)n1` was > 25 µM

====

tested on: CAKI-1 renal; assay: NCI tumour cell line growth inhibition, 48 h
Measurement label: TGI

1) C/C(O[Si](C(C)C)(C(C)C)C(C)C)=C(\C)C(=O)N(C)c1ccccc1Cl    > 100 µM
2) O=C(Oc1ccccc1)C(Br)C(Br)c1ccccc1 (stereo not drawn)    3.06 µM

// for each compound below, give its TGI
1. COC(=O)[C@H](Cc1c[nH]c2ccccc12)NC(=O)c1ccccc1I
2. Nc1ccccc1C(=O)NC(=O)Nc1ccc(Oc2ncc(Br)cn2)c(Cl)c1
3. CNCCCNc1c2ccccc2nc2cccc([N+](=O)[O-])c12
4. COc1ccc(-c2nsc3c2NC(=O)CC3c2cccc(Cl)c2)cc1 (stereo not drawn)
5. CC(=O)OC1C(O[C@H]2CC[C@]34O[C@]35CC[C@]3(C)C(C6(C)CC[C@@H](C(C)(C)O)O6)[C@@H](O)CC3(C)[C@@H]5CC(OC3OC(CO)C(O)C(O)C3O)C4C2(C)C)OCC(O)C1O (stereo partly drawn)
6. CC(=O)NC1(C)C(C)C2CC1C(C)C2(C)C (stereo not drawn)
7. N#Cc1c(-c2ccccc2)cc(Nc2ccc(Cl)cc2)n2c1nc1ccccc12
8. CCc1nc2cc(/C=C/C(=O)NO)ccc2c(=O)n1CCc1ccc(OC)cc1

Reply text:
["50.6 µM", "1.72 µM", "0.0271 µM", "70.1 µM", "> 100 µM", "> 100 µM", "> 30.7 µM", "10.7 µM"]

====

tested on: HCC-2998 colon; experiment: NCI tumour cell line growth inhibition, 48 h
Measurement label: TGI

As a guide, the following entries are already answered.
1. COc1cc(OC)c(OC)cc1/C=C/c1cc[n+](C)c2ccccc12    > 100 µM
2. NC(=S)N/N=C1/CN(c2ccc(Cl)c(Cl)c2)CC(=O)C1c1nc2ccccc2s1 (centres undefined)    > 100 µM
3. CCC[CH2][Sn]([CH2]CCC)([CH2]CCC)[O]C(=O)C(OC)c1ccccc1 (centres undefined)    0.144 µM
4. O=C(NC1(C(=O)O)CCCC1)c1ccccc1    > 100 µM
5. O=C(NCc1ccc2ccc3cccnc3c2n1)c1ccc[n+](Cc2ccccc2)c1    > 100 µM
6. C=C(CN1c2ccccc2Sc2ccccc21)c1ccc(C(=O)Nc2ccccc2N)cc1    > 86.3 µM
7. Nc1ccc(-c2ccc3ncc4ccc(=O)n(-c5cccc(C(F)(F)F)c5)c4c3c2)cn1    1.6 µM
8. COc1ccc(-c2nsc3c2NC(=O)CC3c2cccc(Cl)c2)cc1 (centres undefined)    > 100 µM

Quick request: TGI for each listed item, please.
1. O=C(/C(=N/Nc1ccccc1)c1ccc([N+](=O)[O-])cc1)c1ccc([N+](=O)[O-])cc1
2. C[C@H]1O[C@@H](C(C)(C)C)OC(=O)[C@@H]1C(OC(=O)c1ccccc1)c1cccc2ccccc12 (some centres undefined)
3. Cc1nc(Nc2ccc(Cl)c(Cl)c2)sc1C(=O)/C=C/c1ccc2c(c1)OCO2
4. CC1(C)OC2OC(COC(=O)c3ccc(C#N)cc3)C3OC(C)(C)OC3C2O1 (centres undefined)
5. O=[N+]([O-])C(C(Cl)=C(Cl)Cl)=C(n1cncn1)n1cncn1
6. COc1cc2c(c(OC)c1OC)-c1ccc(SC)c(=O)cc1C(CC(=O)Oc1cccc(F)c1)C2 (centres undefined)

Reply text:
1. > 100 µM
2. > 100 µM
3. 88.1 µM
4. > 75 µM
5. 98.1 µM
6. 0.426 µM

For every item below, please supply its TGI.
1. C[n+]1ccccc1/C1=c2\cc/c([nH]2)=C(\c2cccc[n+]2C)C2=N/C(=C(/c3cccc[n+]3C)C3C=CC(N3)/C(c3cccc[n+]3C)=C3/C=CC1=N3)C=C2
2. COC(=O)CNC(=O)CCC(C)[C@H]1CCC2C3C(C[C@H](OC(C)=O)[C@@]21C)[C@@]1(C)CCC2(C[C@H]1C[C@H]3OC(C)=O)OOC1(CCCCC1)OO2 (some centres undefined)
3. O=C(O)Cn1ccc2ccccc21
4. COc1ccc(C2C3=C(COC3=O)OC(C)(C)Oc3cc4c(cc32)OCO4)cc1OC (centres undefined)
5. Cc1cn(C2OC(CO)C(O)C2F)c(=O)[nH]c1=O (centres undefined)

Reply text:
1. > 100 µM
2. 5.98 µM
3. > 100 µM
4. > 100 µM
5. > 100 µM
